Values from patent US20250368639A1

assay: Single-dose pharmacokinetic study, oral and intravenous, in SD rats; format: in vivo, SD rat; details: male, SD, rat, plasma, iv, 1 mg/kg, male SD rats, intravenous 1 mg/kg, individual rats 501/502/503 (c1/c2/c3)
QUANTITY: MRT last (h)
One number for each entry, in h.

For this compound ( CCc1nc2ccccn2c1C(=O)c1cc(Br)c(O)c(C#N)c1 [Form 1] ), measured MRT last is 3.99

* * *

assay: Single-dose pharmacokinetic study, oral and intravenous, in SD rats; assay type: in vivo, SD rat; settings: male, SD, rat, plasma, po, 10 mg/kg, male SD rats, oral 10 mg/kg, Average (Table 11); read-out: HL_Lambda_z (T1/2) (converted)
QUANTITY: half-life (min)
Answers are plain numbers, in min.

For this compound ( CCc1nc2ccccn2c1C(=O)c1cc(Br)c(O)c(C#N)c1 [Form 5D] ), measured half-life is 204

* * *

Assay: Visual solubility of Form 1 in common solvents
Type: physicochemical
Conditions: isopropyl alcohol, organic solvent or mixture, thermodynamic from solid
Experimental: Solubility of Form 1 was tested visually. About 5 mg of Form I was accurately weighed into a glass vial of 5 ml. Small amounts of solvent was added gradually into the vial until the compound was dissolved or when the total amount added reached 5 ml. The cumulative volume of the solvent was recorded.
QUANTITY: Solubility

For this molecule ( CCc1nc2ccccn2c1C(=O)c1cc(Br)c(O)c(C#N)c1 [Form 1] ), measured Solubility is < 1000 µg/mL

* * *

Test: Single-dose pharmacokinetic study, oral and intravenous, in SD rats
Assay type: in vivo, SD rat
Details: male, SD, rat, plasma, iv, 5 mg/kg, male SD rats, 5 mg/kg (intravenous), individual rats 101/102/103 (c1/c2/c3)
Description: Form 1, Form 2, and Form 5D were each evaluated via a single-dose pharmacokinetic study following oral and intravenous administration in SD rats. […] Form 1, Form 2, and Form 5Dwere evaluated by rat pharmacokinetics study. […] The computer program Microsoft Office Excel 2007 (Microsoft, USA) was used to process data and graphics. The pharmacokinetic parameters were calculated by WinNolin 6.4 software.
QUANTITY: MRT last (h)
Answers are plain numbers, in h.

For this molecule ( CCc1nc2ccccn2c1C(=O)c1cc(Br)c(O)c(C#N)c1 [Form 1] ), measured MRT last is 3.65

* * *

assay: Single-dose pharmacokinetic study, oral and intravenous, in SD rats; assay type: in vivo, SD rat; conditions: male, SD, rat, plasma, po, 10 mg/kg, male SD rats, oral 10 mg/kg, individual rats 401/402/403 (c1/c2/c3)
QUANTITY: AUC(0-t) (ng·h/mL)
One number for each entry, in ng·h/mL.

For this molecule ( CCc1nc2ccccn2c1C(=O)c1cc(Br)c(O)c(C#N)c1 [Form 5D] ), measured AUC(0-t) is 84700

* * *

assay: Single-dose pharmacokinetic study, oral and intravenous, in SD rats; format: in vivo, SD rat; conditions: male, SD, rat, plasma, po, 10 mg/kg, male SD rats, oral 10 mg/kg, Average (Table 9)
QUANTITY: Cmax
Field: value (include unit after the number)

For this compound ( CCc1nc2ccccn2c1C(=O)c1cc(Br)c(O)c(C#N)c1 [Form 1] ), measured Cmax is 6480 ng/mL

* * *

experiment: Single-dose pharmacokinetic study, oral and intravenous, in SD rats; type: in vivo, SD rat; conditions: male, SD, rat, plasma, iv, 5 mg/kg, male SD rats, 5 mg/kg (intravenous), Average; read-out: Vz—pred
QUANTITY: Vd (L/kg)
Answers are plain numbers, in L/kg.

For this compound ( CCc1nc2ccccn2c1C(=O)c1cc(Br)c(O)c(C#N)c1 [Form 1] ), measured Vd is 0.28

* * *

experiment: Single-dose pharmacokinetic study, oral and intravenous, in SD rats; assay type: in vivo, SD rat; settings: male, SD, rat, plasma, po, 10 mg/kg, male SD rats, oral 10 mg/kg, individual rats 301/302/303 (c1/c2/c3)
QUANTITY: Tmax (h)
Numbers only, in h.

For this molecule ( CCc1nc2ccccn2c1C(=O)c1cc(Br)c(O)c(C#N)c1 [Form 2] ), measured Tmax is 4

* * *

Assay: Single-dose pharmacokinetic study, oral and intravenous, in SD rats
Type: in vivo, SD rat
Conditions: male, SD, rat, plasma, po, 10 mg/kg, male SD rats, oral 10 mg/kg, individual rats 301/302/303 (c1/c2/c3); read-out: AUCINF—pred
Description: Form 1, Form 2, and Form 5D were each evaluated via a single-dose pharmacokinetic study following oral and intravenous administration in SD rats. […] Form 1, Form 2, and Form 5Dwere evaluated by rat pharmacokinetics study. […] The computer program Microsoft Office Excel 2007 (Microsoft, USA) was used to process data and graphics. The pharmacokinetic parameters were calculated by WinNolin 6.4 software.
QUANTITY: AUC(0-inf) (µg·h/mL)
Give bare numbers, in µg·h/mL.

For this compound ( CCc1nc2ccccn2c1C(=O)c1cc(Br)c(O)c(C#N)c1 [Form 2] ), measured AUC(0-inf) is 92.4

* * *

assay: Visual solubility of Form 1 in common solvents; assay type: physicochemical; settings: acetonitrile (ACN), organic solvent or mixture, thermodynamic from solid
QUANTITY: Solubility

For this compound ( CCc1nc2ccccn2c1C(=O)c1cc(Br)c(O)c(C#N)c1 [Form 1] ), measured Solubility is < 1000 µg/mL

* * *

experiment: Solubility in water, buffers and bio-relevant media (37° C., 24 h shaking, HPLC); assay type: physicochemical; conditions: pH 6.8 phosphate buffer, 37° C., 24 h
So basically: is Solubility under 30 µg/mL? Then met. Not under? Then not met.

Record excerpt, results attached:
>>> label("CCc1nc2ccccn2c1C(=O)c1cc(Br)c(O)c(C#N)c1 [Form 1]")
"met"
>>> label("CCc1nc2ccccn2c1C(=O)c1cc(Br)c(O)c(C#N)c1 [Form 11]")
"not met"

Query block: Field: below-cutoff. Rule: recorded Solubility strictly less than 30 µg/mL. Subject: CCc1nc2ccccn2c1C(=O)c1cc(Br)c(O)c(C#N)c1 [Form 2]
Result block: met

Query block: Field: below-cutoff. Rule: recorded Solubility strictly less than 30 µg/mL. Subject: CCc1nc2ccccn2c1C(=O)c1cc(Br)c(O)c(C#N)c1 [Form 6]
Result block: met

Query block: Field: below-cutoff. Rule: recorded Solubility strictly less than 30 µg/mL. Subject: CCc1nc2ccccn2c1C(=O)c1cc(Br)c(O)c(C#N)c1 [Form 5D]
Result block: not met

Query block: Field: below-cutoff. Rule: recorded Solubility strictly less than 30 µg/mL. Subject: CCc1nc2ccccn2c1C(=O)c1cc(Br)c(O)c(C#N)c1 [Form 8]
Result block: met

* * *

assay: Visual solubility of Form 1 in common solvents; assay type: physicochemical; settings: toluene, organic solvent or mixture, thermodynamic from solid
QUANTITY: Solubility

For this compound ( CCc1nc2ccccn2c1C(=O)c1cc(Br)c(O)c(C#N)c1 [Form 1] ), measured Solubility is < 1000 µg/mL

* * *

assay: Single-dose pharmacokinetic study, oral and intravenous, in SD rats; format: in vivo, SD rat; details: male, SD, rat, plasma, po, 10 mg/kg, male SD rats, oral 10 mg/kg, Average (Table 10); read-out: AUCINF—pred
QUANTITY: AUC(0-inf) (ng·h/mL)
One number for each entry, in ng·h/mL.

For this compound ( CCc1nc2ccccn2c1C(=O)c1cc(Br)c(O)c(C#N)c1 [Form 2] ), measured AUC(0-inf) is 89100

* * *

assay: Visual solubility of Form 1 in common solvents; assay type: physicochemical; settings: dimethylformamide (DMF), organic solvent or mixture, thermodynamic from solid
QUANTITY: Solubility

For this compound ( CCc1nc2ccccn2c1C(=O)c1cc(Br)c(O)c(C#N)c1 [Form 1] ), measured Solubility is > 25 mg/mL

* * *

Assay: Single-dose pharmacokinetic study, oral and intravenous, in SD rats
Type: in vivo, SD rat
Conditions: male, SD, rat, plasma, po, 10 mg/kg, male SD rats, oral 10 mg/kg, Average (Table 11); read-out: AUCINF—pred
Description: Form 1, Form 2, and Form 5D were each evaluated via a single-dose pharmacokinetic study following oral and intravenous administration in SD rats. […] Form 1, Form 2, and Form 5Dwere evaluated by rat pharmacokinetics study. […] The computer program Microsoft Office Excel 2007 (Microsoft, USA) was used to process data and graphics. The pharmacokinetic parameters were calculated by WinNolin 6.4 software.
QUANTITY: AUC(0-inf) (ng·h/mL)
Answers are plain numbers, in ng·h/mL.

For this compound ( CCc1nc2ccccn2c1C(=O)c1cc(Br)c(O)c(C#N)c1 [Form 5D] ), measured AUC(0-inf) is 92700

* * *

experiment: Single-dose pharmacokinetic study, oral and intravenous, in SD rats; assay type: in vivo, SD rat; conditions: male, SD, rat, plasma, po, 10 mg/kg, male SD rats, oral 10 mg/kg, individual rats 201/202/203 (c1/c2/c3)
QUANTITY: AUC(0-t)
Field: value (include unit after the number)

For this molecule ( CCc1nc2ccccn2c1C(=O)c1cc(Br)c(O)c(C#N)c1 [Form 1] ), measured AUC(0-t) is 71500 ng·h/mL
